assay: Acute toxicity test on rats, oral; type: in vivo; conditions: rat, in vivo, rats 200-250 g, dissolved in ethylacetate, calculated by number of killed animals
testReadout: LD50 (mg/kg)
Just the number in mg/kg, nothing appended.

Measured LD50, CCOC(=O)C1(CCCCCCOC(=O)c2ccc(Cl)cc2)CO1 (stereo not shown) : 487
